Data credit: a collection of fitness landscapes (doi:10.1016/j.celrep.2020.107928)

Quick reference: one-hybrid fitness for binding NBS DNA of the listed items.
B1: Caulobacter ParB omega fusion; a variant is named by its letters at X, in order, B8GW30 (parent)
chain: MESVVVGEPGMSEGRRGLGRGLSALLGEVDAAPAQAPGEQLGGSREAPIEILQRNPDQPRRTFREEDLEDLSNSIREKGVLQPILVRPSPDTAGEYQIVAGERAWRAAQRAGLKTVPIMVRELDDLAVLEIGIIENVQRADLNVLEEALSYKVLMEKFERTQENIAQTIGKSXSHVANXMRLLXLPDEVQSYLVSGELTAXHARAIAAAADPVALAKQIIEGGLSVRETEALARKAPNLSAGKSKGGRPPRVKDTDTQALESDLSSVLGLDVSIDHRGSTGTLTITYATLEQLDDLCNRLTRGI

variants of: B1; experiment: one-hybrid fitness for binding NBS DNA (the Noc-binding site; scaled: cognate 1, non-cognate 0); higher = stronger binding; conditions: with NBS DNA site
Whole data set: some 81,000 sequences, median “one-hybrid fitness for binding NBS DNA” near -0.1, cut for the highest 2% near 0.36. The full list was thinned out, with the highest values kept by preference.

Before answering, review these 6 worked examples.
[[record]]
alteration = "QPSY"
result_value = "≤ 0.2"

[[record]]
alteration = "QTAT"
result_value = 0.595

[[record]]
alteration = "RTMD"
result_value = "≤ 0.2"

[[record]]
alteration = "QTFT"
result_value = 0.515

[[record]]
alteration = "QNEM"
result_value = "≤ 0.2"

[[record]]
alteration = "QILR"
result_value = 0.335


Quick one: one-hybrid fitness for binding NBS DNA of RQKR ?
0.752

Which one-hybrid fitness for binding NBS DNA is reported for this variant? MRFG
≤ 0.2

# query: one-hybrid fitness for binding NBS DNA of entry RTTN
≤ 0.2

What measured one-hybrid fitness for binding NBS DNA goes with LMKG ?
≤ 0.2

# lookup: one-hybrid fitness for binding NBS DNA of FAPL
≤ 0.2

Name the reported one-hybrid fitness for binding NBS DNA value associated with the variant QPGY
≤ 0.2

Reported one-hybrid fitness for binding NBS DNA, variant CRRH : ____
≤ 0.2

I am curious: what one-hybrid fitness for binding NBS DNA value has been reported for QTFC ?
≤ 0.2
